readout.label: melting point

*Q* melting point lookup needed for "CC(C)(C)OC(=O)N[C@H]1CCCOC/C=C\[C@@H]2C[C@@]2(C(=O)NS(=O)(=O)C2CC2)NC(=O)[C@@H]2C[C@@H](OC(=O)NCC3CCCCC3)CN2C1=O" , thanks.
*A* 142 to 144 °C

*Q* melting point lookup needed for "CC(C)(C)OC(=O)N[C@H]1CCCOC/C=C\[C@@H]2C[C@@]2(C(=O)NS(=O)(=O)C2CC2)NC(=O)[C@@H]2C[C@@H](OC(=O)C3CCCCC3)CN2C1=O" , thanks.
*A* 128 to 130 °C

*Q* melting point lookup needed for "CC(C)(C)OC(=O)N[C@H]1CCCOC/C=C\[C@@H]2C[C@@]2(C(=O)NS(=O)(=O)C2CC2)NC(=O)[C@@H]2C[C@@H](OC(=O)c3ccccc3)CN2C1=O" , thanks.
*A* 153 to 155 °C

*Q* melting point lookup needed for "CC(C)(C)OC(=O)N[C@H]1CCCCC/C=C\[C@@H]2C[C@@]2(C(=O)NS(=O)(=O)C2CC2)NC(=O)[C@@H]2C[C@@H](OC(=O)c3cccnc3)CN2C1=O" , thanks.
*A* 157 to 159 °C

*Q* melting point lookup needed for "CC(C)(C)OC(=O)N[C@H]1COCCC/C=C\[C@@H]2C[C@@]2(C(=O)NS(=O)(=O)C2CC2)NC(=O)[C@@H]2C[C@@H](OC(=O)Nc3ccccc3Oc3ccccc3)CN2C1=O" , thanks.
*A* 151 to 153 °C

*Q* melting point lookup needed for "CC(C)(C)OC(=O)N[C@H]1CCCCC/C=C\[C@@H]2C[C@@]2(C(=O)NS(=O)(=O)C2CC2)NC(=O)[C@@H]2C[C@@H](OC(=O)c3ccc4ccccc4c3)CN2C1=O" , thanks.
*A* 156 to 158 °C

*Q* melting point lookup needed for "CC(C)(C)OC(=O)N[C@H]1CCCCC/C=C\[C@@H]2C[C@@]2(C(=O)NS(=O)(=O)C2CC2)NC(=O)[C@@H]2C[C@@H](OC(=O)c3ccc4c(c3)OCO4)CN2C1=O" , thanks.
*A* 153 to 155 °C

*Q* melting point lookup needed for CCCC(C)C(=O)O[C@@H]1C[C@H]2C(=O)N[C@]3(C(=O)NS(=O)(=O)C4CC4)C[C@H]3/C=C\COCCC[C@H](NC(=O)OC(C)(C)C)C(=O)N2C1 (some centres unmarked) , thanks.
*A* 121 to 123 °C
